test system: NCI-H23 lung; assay: NCI-60 one-dose screen, 48 h; details: 10 µM unless noted
This is part of a sample that, as a whole, favours compounds with a hit. Of some 83,000 tested, about 20% had one in any assay. Activity calls are given as the source filed them. How the source made its calls: active means growth percent below 10; inactive means the rest.
Field 'call' accepts True for active, False for inactive

Q: Test call for this compound, please: `O=c1oc2ccccc2cc1C1=NN=C(SCc2ccccc2)SC1`
Result: False

Q: Test call for this compound, please: CC(C)NC1CCC(Nc2ccnc3cc(Cl)ccc23)CC1 (stereo not given)
Result: False

Q: Test call for this compound, please: CC(C)N1CN2C(=S)NC3C2N(C1)C(=S)N3C (stereo not given)
Result: False

Q: Test call for this compound, please: `O=C(NCCCCNC(=O)OCc1ccc2c(Cl)cc(Cl)c(O)c2n1)OCc1ccc2c(Cl)cc(Cl)c(O)c2n1`
Result: False

Q: Test call for this compound, please: `c1cc2[nH]ncc2cc1-c1nc2ccc3[nH]ncc3c2c2c1CCCC2`
Result: False

Q: Test call for this compound, please: `COc1ccc(-c2cn(-c3cc(OC)c(OC)c(OC)c3)c(=O)n2C(C)=O)cc1`
Result: False

Q: Test call for this compound, please: `Cc1ccccc1/C=C1\CN(C(=O)OC(C)(C)C)C/C(=C\c2ccccc2C)C1=O`
Result: True

Q: Test call for this compound, please: `O=C(COc1ccc(-c2nc3ccccc3[nH]2)cc1)N=Nc1c(O)[nH]c2ccc(Cl)cc12`
Result: False

Q: Test call for this compound, please: `Cc1nc2sc(C(=O)Nc3ccccc3)c(N)c2cc1C(=O)c1ccccc1`
Result: False

Q: Test call for this compound, please: `Cc1cccc(Cl)c1NC(=O)c1ccc2nc(NC(=O)NCCN(C)C)sc2c1`
Result: False

Source: PubChem BioAssay (NCI)
